- TGT: Recombinant human JAK1 catalytic domain (Homo sapiens (Human), UniProt P23458)
- Sequence (P23458 875-1153): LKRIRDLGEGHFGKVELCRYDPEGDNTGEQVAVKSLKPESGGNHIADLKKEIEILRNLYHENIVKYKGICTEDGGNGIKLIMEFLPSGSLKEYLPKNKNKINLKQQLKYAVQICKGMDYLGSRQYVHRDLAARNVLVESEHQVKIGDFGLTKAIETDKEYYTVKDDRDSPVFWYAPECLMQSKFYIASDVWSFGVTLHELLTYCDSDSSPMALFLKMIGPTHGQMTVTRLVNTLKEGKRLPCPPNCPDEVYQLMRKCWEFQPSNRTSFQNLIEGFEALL
- PROTOCOL NOTES: JAK1 kinase assay (Z'-LYTE Tyr 6 Peptide)
- Format: biochemical
- TEST PARAMETERS: JAK1 kinase assay, 0.3 uM concentration; read-out: inhibition percentage (IR %)
Catalogue of compounds with associated inhibition at 0.3 µM

{"COMPOUND": "COCC1CCCN1S(=O)(=O)c1ccc(N(C)[C@@H]2CCN(c3ncnc4[nH]ccc34)C2)nc1 (stereo partly shown) [Compound 249]", "TGT": "Recombinant human JAK1 catalytic domain (Homo sapiens (Human), UniProt P23458)", "inhibition at 0.3 µM": "50 to 100%"}
{"COMPOUND": "CN(c1c(F)c(F)c(C#N)c(F)c1F)[C@@H]1CCN(c2ncnc3[nH]ccc23)C1 [Compound 117]", "TGT": "Recombinant human JAK1 catalytic domain (Homo sapiens (Human), UniProt P23458)", "inhibition at 0.3 µM": "50 to 100%"}
{"COMPOUND": "C#CCN(c1cnc(C#N)cn1)[C@@H]1CCN(c2ncnc3[nH]ccc23)C1 [Compound 127]", "TGT": "Recombinant human JAK1 catalytic domain (Homo sapiens (Human), UniProt P23458)", "inhibition at 0.3 µM": "50 to 100%"}
{"COMPOUND": "CN(c1ccc(C#N)cc1F)[C@@H]1CCN(c2ncnc3[nH]ccc23)C1 [Compound 103]", "TGT": "Recombinant human JAK1 catalytic domain (Homo sapiens (Human), UniProt P23458)", "inhibition at 0.3 µM": "50 to 100%"}

Problem: Form field: reported inhibition at 0.3 µM of CN(c1ccc(NS(=O)(=O)Cc2ccccc2Cl)cn1)[C@@H]1CCN(c2ncnc3[nH]ccc23)C1 [Compound 223]
Solution: 50 to 100%

These measurements were taken from patent US10111875B2.
